Quick list: pIC50 per entry.
- target: Human recombinant Acetyl-CoA Carboxylase 1 (ACC1) (Homo sapiens)
- experimental-protocol: Assay Y: ACC1 inhibition, inorganic phosphate (Malachite Green)
- Type: biochemical
- conditions-used: Assay Y: room temperature, 3 hr, 15 min preincubation
Bear in mind: pIC50 is minus log10 of a mol/L concentration; give just that figure.

CC(C)(C)OC(=O)NC[C@H]1CC[C@H](CNC(=O)c2cc(-c3cccc(C(=O)O)c3)nc3ccccc23)CC1 ... 5.10
O=C(NC[C@H]1CC[C@H](CNC(=O)c2cc(-c3ccncc3)nc3ccccc23)CC1)OC1CCCC1 ... 5.92

Reported pIC50, molecule CN1CCN(c2ccc(-c3cc(C(=O)NC[C@H]4CC[C@H](CNC(=O)OCCF)CC4)c4ccccc4n3)cn2)CC1 : ____ 5.79

Reported pIC50, molecule CC(C)(C)OC(=O)NC[C@H]1CC[C@H](CNC(=O)c2cc(N3CCC(CO)CC3)nc3ccccc23)CC1 : ____ 5.25

meta.source: patent US20090306133A1
